Molecular target: MLEΔGin (UniProt P24785 1-1158, E195C;S633C)
Test: fluorescence polarization
pIC50: −log10 of the molar value.
measured-endpoint: pIC50

> print(dat)
                                     binder  value.reported
1  CCUCUUUCUUUC (ssRNA) [UUC RNA (fluorescein)]            6.55
